Where these numbers come from: PubChem BioAssay (NCI)

- Tested on: A498 renal
- test.protocol: NCI tumour cell line growth inhibition, 48 h; in the data active = GI50 below about 0.43 µM; inactive = the rest
A correct response names exactly one class from Y for active, N for inactive

As a guide, the following entries are already answered.
Ask: Assay result, entry "Oc1cc2ccccc2c(-c2c(O)c(O)cc3ccccc23)c1O" — outcome?
Reply: N

Ask: Assay result, entry "O=C(Nc1n[nH]c2nnc(-c3cccnc3)cc12)C1CC1" — outcome?
Reply: Y

Please turn your attention to the following entry.
Ask: Assay result, entry CCCCCCCCCCCCOC1C(CNC(=O)C2OC3OC(C)(C)OC3C2NC(=O)Nc2ccc(CC(=O)NC(Cc3ccccc3)C(=O)O)cc2)OC2OC(C)(C)OC21 (stereo not drawn) — outcome?
Reply: N

---

Each item that follows carries a reported TGI.
- Test system: MDA-MB-231 breast
- test.protocol: NCI tumour cell line growth inhibition, 48 h
The reply should contain only the number, in µM.

// assay MDA-MB-231 breast, entry CCCCCCCCCCCCCCCCC(=O)O.CCCCCCCCCCCCCCCCCC(=O)O.CCCCCCCCCCCCCCCCCC(=O)O.CCCCCCCCCCCCCCCCCC(=O)O.CCCCCCCCCCCCCCCCCC(=O)O.CO[CH-]OC12COC1CC(O)C1(C)C(O)C(OC(C)O)C3=C(C)C(OC(=O)C(O)C([NH-])c4ccccc4)CC(O)(C(OC(=O)c4ccccc4)C21)C3(C)C.[Cu+].[Zn].[Zn].[Zn].[Zn].[Zn] (centres undefined) , TGI value = 4.48

// assay MDA-MB-231 breast, entry CCN(CC)C1CCC(Nc2c(C(C)=O)cnc3ccc(-c4ccc(O)c(Cl)c4)cc23)CC1 (centres undefined) , TGI value = 12.5

// assay MDA-MB-231 breast, entry "COc1ccc(Nc2cc(C)nc(NCCCNc3ccnc4cc(Cl)ccc34)n2)cc1" , TGI value = 3.31

// assay MDA-MB-231 breast, entry "CCN1Cc2nc3sc(C)c(C)c3c(=O)n2C=C1C" , TGI value = 24.7

// assay MDA-MB-231 breast, entry "COc1cc(C(=O)Nc2cc(OC)c3ccn(C)c3c2)cc2c1C[C@]1(C)CC[C@@H](O)C(C)(C)[C@H]1O2" , TGI value = 16.5

***
// assay MDA-MB-231 breast, entry "O=C1C=CC(=O)c2c1ccc1c3ccccc3n(Cc3cccc([N+](=O)[O-])c3)c21" , TGI value = 61.1

// assay MDA-MB-231 breast, entry "Clc1ccc(OCc2nnc3n2N=C(c2ccc(Cl)cc2Cl)CS3)cc1" , TGI value = 33.2

// assay MDA-MB-231 breast, entry "O=C(C/C(=N/O)c1cc(-c2ccccc2)no1)c1ccccc1" , TGI value = 46.1

// assay MDA-MB-231 breast, entry "CCOc1cccc(-c2nc(N)nc(Nc3ccccc3SSc3ccccc3Nc3nc(N)nc(-c4cccc(OCC)c4)n3)n2)c1" , TGI value = 27

// assay MDA-MB-231 breast, entry CCOC(=O)C(C(=S)SC)c1nn2c(=O)cc(C)nc2s1 (centres undefined) , TGI value = 37.9

// assay MDA-MB-231 breast, entry "CC1(C)[C@@H](OC(=O)CCC(=O)O)CC[C@]2(C)[C@H]3C(=O)C=C4[C@@H]5C[C@@](C)(C(=O)O)CC[C@]5(C)CC[C@@]4(C)[C@]3(C)CC[C@@H]12" , TGI value = 171

// assay MDA-MB-231 breast, entry CC(=O)OC1CC2C3CCC4C[C@@H](NC(=O)C=C(C)C)CC[C@]4(C)C3CC[C@]2(C)[C@H]1C(C)N(C)C (some centres undefined) , TGI value = 4.72
